molecular target: human DLL4, full length, on cells (human, UniProt Q9NR61 27-685); test: cell-based or functional assay
Sequence (Q9NR61 27-685 limits assumed): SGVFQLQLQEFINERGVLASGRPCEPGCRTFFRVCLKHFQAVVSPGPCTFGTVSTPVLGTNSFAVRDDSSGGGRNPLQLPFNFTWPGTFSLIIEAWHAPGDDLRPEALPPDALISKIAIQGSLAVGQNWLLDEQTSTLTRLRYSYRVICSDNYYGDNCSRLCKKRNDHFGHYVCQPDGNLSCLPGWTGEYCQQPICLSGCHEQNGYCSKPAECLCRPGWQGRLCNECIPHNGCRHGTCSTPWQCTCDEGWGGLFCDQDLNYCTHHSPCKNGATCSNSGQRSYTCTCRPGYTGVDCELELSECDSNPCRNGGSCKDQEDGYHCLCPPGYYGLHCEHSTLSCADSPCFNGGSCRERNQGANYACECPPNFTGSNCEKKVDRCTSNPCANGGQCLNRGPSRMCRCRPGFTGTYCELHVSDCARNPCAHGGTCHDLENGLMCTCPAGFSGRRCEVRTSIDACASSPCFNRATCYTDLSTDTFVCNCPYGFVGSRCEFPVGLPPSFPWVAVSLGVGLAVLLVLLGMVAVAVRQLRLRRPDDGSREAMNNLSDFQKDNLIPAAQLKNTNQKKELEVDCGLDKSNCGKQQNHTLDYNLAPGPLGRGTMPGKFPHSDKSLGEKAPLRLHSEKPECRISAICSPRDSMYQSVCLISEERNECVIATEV
Listed here are binders together with their documented Notch Reporter Assay EC50.
value.type: Notch Reporter Assay EC50

binder: h38H12.5 (antibody, V domains shown, humanized IgG; also called VH.1a/VL.1 38H12) VH: EVQLVESGGGVVQPGRSLRLSCAASGFTFSNYGMYWIRQAPGKGLEWVAFISHGGGITYYRDSVKGRFTISRDNSKSTLYLQMNSLRAEDTAVYHCAALNWELGIDYWGQGTMVTVSS VL: DIQMTQSPSSLSASVGDRVTITCRASEDIYSNLAWYQQKPGKAPKLLIYAANRLQDGVPSRFSGSGSGTDFTLTISSLQPEDFATYYCLQGSKFPLTFGQGTKLEIKR
observed.value: 7.31 nM
--
binder: h38H12.8 (antibody, V domains shown, humanized IgG; also called VH.1a/VL.2a 38H12) VH: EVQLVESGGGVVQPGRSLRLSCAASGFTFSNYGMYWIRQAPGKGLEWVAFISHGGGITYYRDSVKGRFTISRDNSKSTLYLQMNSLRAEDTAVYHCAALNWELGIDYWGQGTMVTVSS VL: EIVMTQSPATLSVSPGERATLSCRASEDIYSNLAWYQKKPGQSPRLLIYAANRLQDGVPARFSGSGSGTEYTLTISSLQSEDFAVYFCLQGSKFPLTFGQGTKLEIKR
observed.value: 5.56 nM
--
binder: h38H12.15 (antibody, V domains shown, humanized IgG; also called VH.2a/VL.1b 38H12) VH: EVQLVESGGGLVQPGGSLRLSCAASGFTFSNYGMYWIRQAPGKGLEWVAFISHGGGITYYRDSVKGRFTISRDNSKSTLYLQMNSLRAEDTAVYHCAALNWELGIDYWGQGTMVTVSS VL: DIQMTQSPSSLSASVGDRVTITCRASEDIYSNLAWYQQKPGKAPKLLIYAANRLQDGVPSRFSGSGSGTDYTLTISSLQPEDFATYYCLQGSKFPLTFGQGTKLEIKR
observed.value: 0.837 nM
